# assay: Solubility in KMOPS buffer pH 7.2
# Assay type: physicochemical
# appliedConditions: pH 7.2, aqueous buffer
Exercise: state measured solubility for each of the compounds provided.

Lab book: solubility of `CCCCCCCCC(=O)NCc1ccc(OCc2cc(OC)c3ccc(O)c(C#N)c3n2)c(OC)c1` noted as 77 µM

Lab book: solubility of `COc1cc(-c2cc(COc3cc(CCN)ccc3O)nc3c(C#N)c(O)ccc23)cc(OC)c1OC.O=C(O)C(F)(F)F` noted as > 100 µM

Lab book: solubility of `C=CCc1ccc(OCc2cc(OC)c3ccc(O)c(C#N)c3n2)c(OC)c1` noted as > 100 µM

Lab book: solubility of `N#Cc1c(O)ccc2c(N3CCOCC3)cc(COc3cc(CCN)ccc3O)nc12.O=C(O)C(F)(F)F` noted as > 100 µM

Lab book: solubility of `Cc1ccc(-c2cc(COc3cc(CCN)ccc3O)nc3c(C#N)c(O)ccc23)cc1.O=C(O)C(F)(F)F` noted as 85 µM

Lab book: solubility of `CCCN(CCc1cccs1)[C@@H]1CCc2c(cccc2OCc2cc(OC)c3ccc(O)c(C#N)c3n2)C1` noted as > 100 µM
